target: recombinant HER2 antigen (ectodomain of hHER2) (Homo sapiens) (UniProt P04626); assay: SPR; ProteOn XPR36; HER2 and CD3 antigens amine-coupled on a GLC chip at 1000 RU; M802 (0 to 50 nM) and other antibodies injected; 1:1 L interaction model for HER2, two state interaction model for CD3
endpoint: Kd (nM)
Reply numerically in nM, unit not repeated.

Name the reported Kd value associated with the substance M802, anti-HER2/CD3 bispecific antibody (MSBODY format: monovalent unit against HER2 and single chain unit against CD3)
0.578

* * *

target: HER2 on SK-BR-3 cells (human (endogenous in SK-BR-3)); test: FACS; details: bispecific antibody
endpoint: Kd (nM)
Reply numerically in nM, unit not repeated.

Name the reported Kd value associated with the substance M802, anti-HER2/CD3 bispecific antibody (MSBODY format: monovalent unit against HER2 and single chain unit against CD3) (from UniProt P01857)
11.7
